Molecular target: LXRβ ligand-binding domain (Homo sapiens, UniProt P55055, DUP175-175)
Construct: amino acids 156-461; NP009052; made in house; host or cells: E. coli
Assay: TR-FRETβ activity assay (NCoA3 coactivator peptide recruitment)
Format: biochemical
Details: TR-FRET, 1 μM 24(S)-25-epoxycholesterol prestimulation; read-out: FRETβ (EC50 range)
Listing of entries alongside the reported EC50.
readout kind: EC50

compound: Cc1ccc(S(=O)(=O)n2c(-c3cccc(-c4ccc(-c5nnn[nH]5)cc4Cl)c3)c(-c3ccsc3C#N)c3cc(F)ccc32)cc1 [Example 37]
tested on: LXRβ ligand-binding domain (Homo sapiens, UniProt P55055, DUP175-175)
reported value: 0.1 to 1 µM
//
compound: N#Cc1ccccc1-c1c(-c2cccc(-c3ccc(C(=O)O)c4c3OCO4)c2)n(S(=O)(=O)c2ccc(C(F)F)cc2)c2ccc(F)cc12 [11/28]
tested on: LXRβ ligand-binding domain (Homo sapiens, UniProt P55055, DUP175-175)
reported value: < 0.1 µM
//
compound: Cc1ccc(S(=O)(=O)n2c(-c3cccc(-c4cnc(C(=O)O)cc4C)c3)c(-c3ccsc3C#N)c3cc(F)ccc32)cc1 [Example 36]
tested on: LXRβ ligand-binding domain (Homo sapiens, UniProt P55055, DUP175-175)
reported value: 1 to 10 µM
//
compound: Cn1cnc(S(=O)(=O)n2c(-c3cccc(C4CC4C(=O)O)c3)c(-c3ccsc3C#N)c3ccccc32)c1 (stereo not shown) [30/10]
tested on: LXRβ ligand-binding domain (Homo sapiens, UniProt P55055, DUP175-175)
reported value: > 10 µM
//
compound: Cc1ccc(S(=O)(=O)n2c(-c3cccc(-c4ccc(C(=O)O)c(F)c4Cl)c3)c(-c3ccsc3C#N)c3cc(F)ccc32)cc1 [12/3]
tested on: LXRβ ligand-binding domain (Homo sapiens, UniProt P55055, DUP175-175)
reported value: 0.1 to 1 µM
//
compound: N#Cc1sccc1-c1c(-c2cccc(N3CC(C(=O)O)C3)n2)n(S(=O)(=O)c2ccc(Cl)cc2)c2ccccc12 [30/6]
tested on: LXRβ ligand-binding domain (Homo sapiens, UniProt P55055, DUP175-175)
reported value: 1 to 10 µM
//
compound: N#Cc1sccc1-c1c(-c2cccc(-c3ccc(C(=O)O)cc3Cl)c2)n(S(=O)(=O)c2ccc(C(F)(F)F)nc2)c2ccc(F)cc12 [11/16]
tested on: LXRβ ligand-binding domain (Homo sapiens, UniProt P55055, DUP175-175)
reported value: 0.1 to 1 µM

###

Biological target: full length (FL) LXRβ (Homo sapiens, UniProt P55055, DUP175-175)
Construct: the full length (FL) proteins of LXRα (amino acids 1-447); NP005684; NP009052; expressed in transfected cells; host or cells: HEK293
Sequence (P55055 with tags, fused parts or gaps DUP175-175): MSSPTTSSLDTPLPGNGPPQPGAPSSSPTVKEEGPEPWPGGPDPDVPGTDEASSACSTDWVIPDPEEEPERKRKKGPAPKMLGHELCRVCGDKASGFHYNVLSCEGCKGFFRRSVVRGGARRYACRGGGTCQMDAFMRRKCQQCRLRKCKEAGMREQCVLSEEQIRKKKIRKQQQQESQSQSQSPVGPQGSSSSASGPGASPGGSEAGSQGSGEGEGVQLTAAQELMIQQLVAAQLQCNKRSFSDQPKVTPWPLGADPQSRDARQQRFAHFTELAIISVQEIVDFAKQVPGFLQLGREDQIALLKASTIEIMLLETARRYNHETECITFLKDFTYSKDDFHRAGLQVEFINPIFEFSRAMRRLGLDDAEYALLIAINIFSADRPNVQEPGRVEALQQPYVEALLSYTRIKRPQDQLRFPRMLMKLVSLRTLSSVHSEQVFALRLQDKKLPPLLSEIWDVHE
Experiment: LXR Gal4 reporter transient transfection assay (FL-M2H Gal4β)
Type: cell-based
Conditions: HEK293 cells, full length LXRβ; read-out: FL-M2H Gal4β (EC50 range)

molecule: Cc1ccc(S(=O)(=O)n2c(-c3cccc(-c4ccc(CN5CCN(C)CC5)cc4)c3)c(-c3ccsc3C#N)c3cc(F)ccc32)cc1 [Example 8]
EC50: < 0.1 µM
--
molecule: N#Cc1cncc(C#N)c1-c1c(-c2cccc(-c3ccc(C(=O)O)cc3Cl)c2)n(S(=O)(=O)c2ccc(C(F)F)cc2)c2ccc(F)cc12 [11/67]
EC50: < 0.1 µM
--
molecule: N#Cc1sccc1-c1c(-c2cccc(N3CCC(C(=O)O)CC3)c2)n(S(=O)(=O)c2ccc(C(F)F)cc2)c2ccc(F)cc12 [3/60]
EC50: < 0.1 µM
--
molecule: Cc1ccc(S(=O)(=O)n2c(-c3cccc(N4CC(C(=O)O)C4)c3)c(-c3ccsc3C#N)c3cc(C#N)ccc32)cc1 [3/45]
EC50: 0.1 to 1 µM
